# TEST: Toxicity study, I.P. dosing and blood chemistry
# PROTOCOL_CONDITIONS: female, Balb/c, mouse, in vivo, ip
PARAMETER: MTD

[[record]]
line_notation = "CC(=O)N[C@@H](CCCNC(=N)N)C(=O)N[C@H](C(=O)N[C@@H](Cc1ccc(N=C(N)N)cc1)C(=O)NCc1ccc(C(=N)N)cc1)C(C)C"
parameter = "MTD"
obs_value = "~10 mg/kg"


----------
# MEASUREMENT_TARGET: furin (Homo sapiens)
# Sequence (P09958 108-794): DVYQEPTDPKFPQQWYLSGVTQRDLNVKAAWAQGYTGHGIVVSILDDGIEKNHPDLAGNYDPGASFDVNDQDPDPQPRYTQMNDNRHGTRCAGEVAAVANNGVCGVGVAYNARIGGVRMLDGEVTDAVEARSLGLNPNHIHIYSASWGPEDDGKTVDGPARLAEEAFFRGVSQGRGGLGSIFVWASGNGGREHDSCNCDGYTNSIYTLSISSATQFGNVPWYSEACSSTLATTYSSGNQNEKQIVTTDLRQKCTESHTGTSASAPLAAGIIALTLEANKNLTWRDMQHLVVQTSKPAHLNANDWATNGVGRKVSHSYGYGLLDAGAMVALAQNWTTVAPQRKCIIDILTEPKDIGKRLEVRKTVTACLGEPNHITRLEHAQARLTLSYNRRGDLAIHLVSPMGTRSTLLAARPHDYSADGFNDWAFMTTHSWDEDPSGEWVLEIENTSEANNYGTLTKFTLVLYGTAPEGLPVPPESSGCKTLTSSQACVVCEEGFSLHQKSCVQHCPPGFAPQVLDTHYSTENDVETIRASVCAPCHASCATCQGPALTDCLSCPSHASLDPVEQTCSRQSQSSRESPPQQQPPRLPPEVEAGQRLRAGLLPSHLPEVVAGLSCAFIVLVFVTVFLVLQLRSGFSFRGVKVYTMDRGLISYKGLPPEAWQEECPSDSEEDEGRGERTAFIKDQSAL
pIC50: −log10 of the molar value.
PARAMETER: pIC50

[[record]]
molecule = "CC(=O)N[C@@H](CCCNC(=N)N)C(=O)N[C@H](C(=O)N[C@@H](Cc1ccc(N=C(N)N)cc1)C(=O)NCc1ccc(C(=N)N)cc1)C(C)C [compound 1]"
obs_value = 8.05


----------
# MEASUREMENT_TARGET: hPC2 (Homo sapiens)
# Sequence (P16519 110-638): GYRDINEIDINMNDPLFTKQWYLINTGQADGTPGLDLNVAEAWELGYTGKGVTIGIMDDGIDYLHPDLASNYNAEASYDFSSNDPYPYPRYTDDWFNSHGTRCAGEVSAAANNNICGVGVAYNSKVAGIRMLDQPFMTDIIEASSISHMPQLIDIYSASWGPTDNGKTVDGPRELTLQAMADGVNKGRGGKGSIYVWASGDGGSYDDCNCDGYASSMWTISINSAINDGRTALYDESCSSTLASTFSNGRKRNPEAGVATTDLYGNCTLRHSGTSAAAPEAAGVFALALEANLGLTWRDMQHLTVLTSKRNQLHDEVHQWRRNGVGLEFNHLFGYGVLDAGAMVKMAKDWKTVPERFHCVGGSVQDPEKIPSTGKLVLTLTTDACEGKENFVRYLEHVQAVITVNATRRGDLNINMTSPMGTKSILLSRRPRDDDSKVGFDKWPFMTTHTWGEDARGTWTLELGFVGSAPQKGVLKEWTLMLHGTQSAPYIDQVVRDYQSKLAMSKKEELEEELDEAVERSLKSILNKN
pIC50: −log10 of the molar value.
PARAMETER: pIC50

[[record]]
line_notation = "CC(=O)N[C@@H](CCCNC(=N)N)C(=O)N[C@H](C(=O)N[C@@H](Cc1ccc(N=C(N)N)cc1)C(=O)NCc1ccc(C(=N)N)cc1)C(C)C"
parameter = "pIC50"
obs_value = 5.73


----------
# MEASUREMENT_TARGET: hPC1/3 (Homo sapiens, UniProt P29120)
# Sequence (P29120 111-753): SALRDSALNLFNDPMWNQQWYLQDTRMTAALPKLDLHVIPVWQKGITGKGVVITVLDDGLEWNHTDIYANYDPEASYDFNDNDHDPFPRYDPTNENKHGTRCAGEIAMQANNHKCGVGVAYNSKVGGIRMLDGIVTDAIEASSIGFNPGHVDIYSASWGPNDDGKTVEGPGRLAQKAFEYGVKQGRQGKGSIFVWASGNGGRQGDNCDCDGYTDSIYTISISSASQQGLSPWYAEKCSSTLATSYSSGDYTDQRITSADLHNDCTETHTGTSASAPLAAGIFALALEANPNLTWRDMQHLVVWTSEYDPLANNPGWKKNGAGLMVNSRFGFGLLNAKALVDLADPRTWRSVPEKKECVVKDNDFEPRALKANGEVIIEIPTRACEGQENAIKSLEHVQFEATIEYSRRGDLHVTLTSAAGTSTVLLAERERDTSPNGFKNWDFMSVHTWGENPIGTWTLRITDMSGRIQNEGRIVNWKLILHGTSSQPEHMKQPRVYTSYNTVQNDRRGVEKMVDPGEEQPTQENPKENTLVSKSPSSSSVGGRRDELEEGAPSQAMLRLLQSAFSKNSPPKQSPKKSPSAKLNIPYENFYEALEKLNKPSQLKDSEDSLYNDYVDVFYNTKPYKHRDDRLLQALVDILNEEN
# TEST: Inhibition of hPC1/3 activity, fluorescent substrate Pyr-RTKR-AMC
PARAMETER: IC50 (nM)

[[record]]
line_notation = "CC(=O)N[C@@H](CCCNC(=N)N)C(=O)N[C@H](C(=O)N[C@@H](Cc1ccc(N=C(N)N)cc1)C(=O)NCc1ccc(C(=N)N)cc1)C(C)C"
obs_value = 3


----------
# TEST: in vivo
# PROTOCOL_CONDITIONS: mouse, %F I.P./I.V.
PARAMETER: bioavailability

[[record]]
compound = "CC(=O)N[C@@H](CCCNC(=N)N)C(=O)N[C@H](C(=O)N[C@@H](Cc1ccc(N=C(N)N)cc1)C(=O)NCc1ccc(C(=N)N)cc1)C(C)C [compound 1]"
parameter = "bioavailability"
obs_value = "~100%"


----------
# TEST: in vivo
# PROTOCOL_CONDITIONS: mouse, %F P.O./I.V.
PARAMETER: bioavailability

[[record]]
line_notation = "CC(=O)N[C@@H](CCCNC(=N)N)C(=O)N[C@H](C(=O)N[C@@H](Cc1ccc(N=C(N)N)cc1)C(=O)NCc1ccc(C(=N)N)cc1)C(C)C"
obs_value = "< 1%"

